B1: Azoarcus group I ribozyme (parent)
chain: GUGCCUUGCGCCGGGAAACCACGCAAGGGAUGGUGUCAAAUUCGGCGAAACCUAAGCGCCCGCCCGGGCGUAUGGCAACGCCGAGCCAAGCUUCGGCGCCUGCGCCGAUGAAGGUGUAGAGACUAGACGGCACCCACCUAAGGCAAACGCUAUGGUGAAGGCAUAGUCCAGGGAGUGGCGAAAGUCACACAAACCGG

# Variants of: B1
# procedureSummary: reverse-splicing fitness (ratio to wild type); higher = more active; in vitro selection; Mg2+ level not given
# reverse-splicing fitness values compiled below
Respond numerically, and do not add a unit to the figure.

>>> print(df.to_string())
                 sequencechange  reportedresult
0  C82U A111U A120C A145U C169A         0.00631

// query For C82U C150G C169U , what is its reported reverse-splicing fitness?
// result 0.00789

// query Another variant to check: C82U A111C A120U A145C C150U C169A
// result 0.00253

// query Another variant to check: C82A A111G A145G C150A C169A U176G
// result 0.00749

// query Another variant to check: C169A U176C
// result 0.0638

// query Another variant to check: C82A A120C C150G C169U
// result 0.0104
